Data origin: patent US20140241984A1

STUDY TARGET: α-synuclein fibrils (human), P37840
ASSAY DETAILS: SPR, BIAcore X100; fibrils immobilised on CM5, mAb injected at 0.01-10 nM
RUN CONDITIONS: remark: other sources report otherwise
READOUT: kon (M⁻¹ s⁻¹)
A number alone suffices; assume M⁻¹ s⁻¹.

Looking up Syn-O1 (antibody, IgG2b, V domains shown) VH: EVQLVESGGGLVQPKGSLKLSCAASGFTFNTYAMHWVRQAPGKGLEWVARIRSKSSNYATYYADSVKDRFTISRDDSQSMLYLQMNNLKTEDTAMYYCVRPLKWYFDVWGTGTTVTVSS VL: QIVLTQSPAILSASPGEKVTMTCSASSTVNYMHWYQQKSGTSPKIWIYDTSKLASGVPARFSGSGSWTSYSLTISSMEAEDAATYYCQQWNSNPPTFGAGTKLELK , I found its kon recorded as 5.86e+06
